- ASSAY SYSTEM: T1, Human PD-L1 antigen (human, UniProt Q9NZQ7 19-238)
- T1 construct: also called PD-L1 protein
- T1 sequence (Q9NZQ7 19-238 limits assumed): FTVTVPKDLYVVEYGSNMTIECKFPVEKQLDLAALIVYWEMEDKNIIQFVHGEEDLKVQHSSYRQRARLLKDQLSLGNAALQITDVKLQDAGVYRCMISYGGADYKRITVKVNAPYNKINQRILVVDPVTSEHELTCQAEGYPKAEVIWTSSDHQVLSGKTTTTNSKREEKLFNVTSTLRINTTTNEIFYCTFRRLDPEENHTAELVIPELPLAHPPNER
- PROCEDURE DETAILS: BLI (Octet), His-tagged VHH on anti-penta-His tips, soluble human PD-L1
Measured koff of individual entries
Please give a number only; it is taken to be in s⁻¹.

1) PL11 (VHH, not shown: C-terminal His-tag) VHH: QVQLVESGGGLVQAGGSLRLSCAASGRTFNTYDMGWFRRAPGKEREFVAGIDWYTTNTYYADSVKGRFTISRDNAKNTVYLQMRSLKPEDTAVYYCAAGIRSTATITGQADYWGQGAQVTVSS | 0.000522

Quick one: koff of PL18 (VHH, not shown: C-terminal His-tag) VHH: EVQLVESGGGLVQAGGSLRLSCAASGRTFNIYSMAWFRQAPGKEREFVVRINWNRGTTYYADSVKGRFTISRDNAKNTVYLQMSNLKPEDTAVYYCAARGSPSTIGAFTSASHYDYWGQGTQVTVSS ?
0.000114

Quick one: koff of PL2 (VHH, not shown: C-terminal His-tag) VHH: QVQLVESGGGLVQAGGSLRLSCAVSGLTLSRYTMAWFRQAPGKEREFVAAIIRNSVSTFHEESVKGRFTISRDNVKNMMYLQMNTLKPEDTAVYYCATNVGPTGGFSLQSVQRYDAWGQGTQVTVSS ?
0.021

Quick one: koff of PL14 (VHH, not shown: C-terminal His-tag) VHH: EVQLVESGGGLVQAGGSLRLSCAASGSTSGIYDMGWYRQAPGKLREVVGIITSGGTTNYADFAKGRFTISRDNAKNMMYLQMNSLKPEDTAVYYCNIRTRLIIWGQGTQVTVSS ?
1.1e-06
